# target-or-test-system: MLE dsRBD2 (UniProt P24785 155-257)
# protocol-description: ITC; n=0.70; Filter binding: 20 mM HEPES/NaOH pH 8.0, 150 mM NaCl, 5 mM MgCl2, on ice; ITC: 10 mM HEPES pH 8.0, 75 mM NaCl, 2.5 mM MgCl2, 1 mM b-mercaptoethanol, 20 C; NMR:
# condition-description: protein: recombinant; tags: N-terminal His6 removed by TEV; blunt, internal A-C mismatch and G-U pairs
readout-label: pKd
pKd (log units): -log10 of the concentration in mol/L.

Please give the documented pKd of SL7 18mer duplex (dsRNA) RNA 1: AGACGUGUAAAAUGUUGC RNA 2: GUAACGUUUUACGCGCCU
5.57

Reference source: paper PMC6486548
